Provide the recorded pIC50 for the entries that follow.
- Test system: MOLT4
- ASSAY METHOD TEXT: Cytotoxicity against cancer cell lines (Example 5), Molt4
- Type: cell-based
- MEASUREMENT CONDITIONS: Tables 5-12; read-out: IC50 Molt4
pIC50: −log10 of the molar value.

Known value: MOLT4 pIC50 of the compound C=CCOc1cccc2c1C(=O)c1c(OCC=C)cc(C(=O)N=[N+]=[N-])cc1C2=O [BW-AQ-154] equals 5.18

Known value: MOLT4 pIC50 of the compound [N-]=[N+]=NCCOc1cccc2c1C(=O)c1c(OCCN=[N+]=[N-])cc(C(=O)O)cc1C2=O [BW-AQ-121] equals < 5.80

Known value: MOLT4 pIC50 of the compound C=CCOc1cccc2c1C(=O)c1c(OCC=C)cc(C(=O)O)cc1C2=O [BW-AQ-153] equals < 4.60

Known value: MOLT4 pIC50 of the compound C=CCOC(=O)c1cc(OCC=C)c2c(c1)C(=O)c1cccc(OCC=C)c1C2=O [BW-AQ-152] equals < 4.60

Values from patent US10544090B2
